Listed molecules paired with reported half-life at 10 µM
experiment: Functional measure of hydrolysis: pre-hydrolysis in RPMI medium or human serum, then growth of MCF-7/Adr cells; format: cell-based; conditions: RPMI 1640 medium, read out by growth of MCF-7/Adr cells; RPMI 1640, 37° C., estimated from FIG. 5A; read-out: Half-life in cell culture media

molecule	half-life at 10 µM
COc1cccc2c1C(=O)c1c(O)c3c(c(O)c1C2=O)C[C@@](O)(C(=O)CO)C[C@@H]3OC1CC2C(OCN2CN2COC3C(C)OC(O[C@H]4C[C@](O)(C(=O)CO)Cc5c(O)c6c(c(O)c54)C(=O)c4c(OC)cccc4C6=O)CC32)C(C)O1 (some centres unmarked) [DoxF, Doxoform, reference compound]	~1.5 min
COc1cccc2c1C(=O)c1c(O)c3c(c(O)c1C2=O)C[C@@](O)(C(=O)CO)C[C@@H]3O[C@H]1C[C@@H]2NCO[C@@H]2[C@H](C)O1 [Doxaz, Doxazolidine]	~1 min
